- experiment: Viability qHTS for spleen associated tyrosine kinase inhibitor (SYKi) drug resistant MV4-11 cells (AID 1963824); note: nearly all actives have a fitted effect of over 35% in size; note: potency is the fitted concentration of half-maximal effect
- condition info: SYKi-resistant MV4-11 viability, CellTiter-Glo, 72 h; series mostly up to 45 µM
Records with an inconclusive call do not appear. Activity calls are given as the source filed them. Calls come from the whole dose curve; as a rule, active = well fitted cell-killing curve with a large enough effect; inconclusive = small, poorly fitted or top-dose-only effect, or effect the other way; inactive = no such curve, though single readings can be large or run the other way.
attribute measured: Potency

Below: 10 molecules and their reported Potency.
| molecule | Potency |
| --- | --- |
| Cc1c(C(=O)O)c(O)cc2c1C(=O)c1c(O)c([C@@H]3O[C@H](CO)[C@@H](O)[C@H](O)[C@H]3O)c(O)c(O)c1C2=O | inactive |
| O=C(NC[C@H](O)CO)c1ccncc1Nc1ccc(I)cc1F | 0.166 µM (active) |
| COc1cc(Nc2nc3ccccc3nc2NS(=O)(=O)c2ccc(NC(=O)c3ccc(C)c(OC)c3)cc2)cc(OC)c1 | 18.6 µM (active) |
| C[C@@H]1C(=O)O[C@H]2C[C@]34[C@H]5C[C@@H](C(C)(C)C)[C@]36[C@@H](OC(=O)[C@H]6O)O[C@]4(C(=O)O5)[C@]21O | inactive |
| CC(C)S(=O)(=O)NC[C@H](C)c1ccc(NC(=O)c2cc(F)cc(F)c2)cc1 | 14.6 µM (active) |
| Cc1ccc(NS(=O)(=O)c2cc3c(cc2NC(C)CO)NC(=O)CC3)cc1C (stereo not given) | 10.2 µM (active) |
| Cn1ncc(Cl)c1-c1cc(C(=O)N[C@H](CN)Cc2ccc(F)c(F)c2)oc1Cl | 8.2 µM (active) |
| COC(=O)C1=C(C)NC(c2ncc(F)cc2F)=N[C@H]1c1ccc(F)cc1Cl | 9.34 µM (active) |
| COc1nc(C)nc(Cl)c1NC1=NCCN1 | inactive |
| CCC(C)CNCC(=O)N1CCc2sccc2C1COc1cccc(C)c1 (stereo not given) | 9.2 µM (active) |

In the following, a different molecule is considered.
Exercise: Potency lookup needed for "O=C(NC1CCN(CCCCC2(C(=O)NCC(F)(F)F)c3ccccc3-c3ccccc32)CC1)c1ccccc1-c1ccc(C(F)(F)F)cc1" , thanks.
Solution: 2.59 µM (active)

The values you see were collected from PubChem BioAssay (NCATS).
